- Tested on: Wnt5a (protein binding on small-molecule microarray)
- assayName: Wnt5a binders on small-molecule microarray, primary screen, biophysical, 635/667 nm fluorescence (AID 1142);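 also: fluorescence read at 667 nm with signal to noise per printed feature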
- experimentalConditions: 635 nm fluorescence, higher = more signal
// map composite z-score to label using low-valued = under 0.1, mid-valued = from 0.1 up to 0.5, high-valued = 0.5 and over

Example entries and their recorded answers appear below.
compound	experimentalSystem	class
CCOC(=O)C1=CC[C@@H](c2ccccc2C(F)(F)F)N(S(=O)(=O)c2ccc(C)cc2)[C@H]1c1ccc(C#N)cc1	Wnt5a (protein binding on small-molecule microarray)	mid-valued
COC1OC[C@]2(C)[C@H]3C4=C(CN2C(=O)OC(C)(C)C)[C@H](C)C(CO)C(CO)C4CC[C@@H]13 (stereo partly drawn)	Wnt5a (protein binding on small-molecule microarray)	high-valued
CN(C)CCCCNC(=O)[C@@H]1C[C@@H]2C(=O)N[C@@H](Cc3ccccc3)C(=O)N2[C@@H]1c1cccc(OCCO)c1	Wnt5a (protein binding on small-molecule microarray)	high-valued
OCC1CC(c2ccccc2)=NO1 (stereo not drawn)	Wnt5a (protein binding on small-molecule microarray)	mid-valued
COC(=O)[C@@]1(Cc2ccccc2)[C@H]2c3cc(C(=O)N(C)C)n(CCc4ccc(O)c(OC)c4)c3C[C@H]2CN1C(=O)c1ccccc1	Wnt5a (protein binding on small-molecule microarray)	high-valued
CCC(CC)C(O)C1C=CC2C(=O)N(c3ccccc3)C(=O)C2N1Nc1ccc(C(C)C)cc1 (stereo not drawn)	Wnt5a (protein binding on small-molecule microarray)	high-valued
COC(=O)[C@@]1(Cc2ccc(OC)cc2)[C@H]2c3cc(C(=O)N(C)C)n(C[C@H](O)CO)c3C[C@H]2CN1C(=O)c1ccccc1	Wnt5a (protein binding on small-molecule microarray)	high-valued
[N-]=[N+]=NCc1ccccc1C[C@]1(C(N)=O)N=C(c2ccc(OCCCO)cc2)O[C@H]1c1ccccc1	Wnt5a (protein binding on small-molecule microarray)	low-valued

Where would `CO[C@H]1O[C@H](CO)[C@@H](OC(=O)Nc2ccc3c(c2)OCO3)[C@H](OC(=O)c2cc3ccccc3[nH]2)[C@H]1OC(=O)c1cc2ccccc2[nH]1` land among the classes by reported composite z-score?
low-valued

Where would `C=C(COC)/C(=C/C[C@H](OC(C)=O)c1ccc(OCCO)cc1)c1cc(C(=O)OC)ccc1OC` land among the classes by reported composite z-score?
mid-valued

Where would CC[C@H]1C2=C3C(CC[C@H]4C(OCc5ccc(F)cc5C(F)(F)F)OC[C@](C)([C@@H]34)N(C(=O)OC(C)(C)C)C2)C(COC)C1COC (stereo partly drawn) land among the classes by reported composite z-score?
low-valued

Where would `CC(C)[Si](C#C[Si](C(C)C)(C(C)C)C(C)C)(O[C@H](C)c1cn([C@H](CO)Cc2ccccc2)nn1)C(C)C` land among the classes by reported composite z-score?
low-valued

====

composite z-score listing for selected molecules.
- assayName: binders of probe aHhip on microarray, primary screen, stem cell growth factor project, biochemical, small-molecule microarray, fluorescence 635/667 (AID 1087);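 also: score merges spot fluorescence at 667nm with spot signal to noise ratio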
- experimentalConditions: higher = more signal
The response must contain the number and no unit.

C=CCOC(=O)[C@H]1[C@@H]2C(=O)O[C@@H](c3ccccc3)[C@@H](c3ccccc3)N2[C@@H](c2ccc(OCCOC(=O)[C@@H]3C[C@@H]4C(=O)N[C@@H](CCCCNC(C)=O)C(=O)N4[C@@H]3c3ccc(O)cc3)cc2)[C@]12C(=O)Nc1ccc(I)cc12 -0.323

Provide measured composite z-score value, entry: `O=C1O[C@H](c2ccccc2)[C@H](c2ccccc2)N2[C@H]1[C@@H](C(=O)Nc1nc3ccccc3s1)[C@]1(C(=O)Nc3ccc(C#CC4(O)CCCCCC4)cc31)[C@H]2c1ccccc1OCCO`
-0.0994

====

- System: XIP peptide (Xip251-270)
- assayName: small-molecule binders of XIP peptide, primary screen, biochemical, small-molecule microarray, fluorescence 635/667 nm, 0.5 µg/mL protein (AID 1183)
- experimentalConditions: small-molecule microarray binding, fluorescence 635 nm; higher = more signal
valueKind: composite z-score
The response must contain the number and no unit.

Example entries and their recorded answers appear below.
compound	reading
C=CCOC(=O)[C@H]1[C@@H]2C(=O)O[C@@H](c3ccccc3)[C@@H](c3ccccc3)N2[C@@H](c2ccc(OCCOC(=O)[C@H]3C[C@H]4C(=O)N[C@@H](CC(C)C)C(=O)N4[C@H]3c3cccc(OCCO)c3)cc2)[C@]12C(=O)Nc1ccc(I)cc12	0.694
[N-]=[N+]=NCc1ccccc1[C@H]1OC(c2ccc(OCCCO)cc2)=N[C@@]1(CCS(=O)(=O)c1ccccc1)C(=O)NCC(O)CO (some centres not stated)	0.781
COC(=O)[C@@]1(Cc2ccccc2N=[N+]=[N-])N=C(c2ccc(OCCCO)cc2)O[C@H]1c1ccccc1N=[N+]=[N-]	0.848
CCCCC(=C=CC[C@@H](O)c1ccccc1OCCO)C[C@@H](O)COCc1ccccc1	0.868
COc1ccccc1CN1C(=O)c2ccccc2[C@@]2(Cc3ccccc3N(CC(F)(F)F)C2=O)[C@@H]1c1ccc(CO)cc1	0.555

Provide measured composite z-score value, entry: `CN(C)C(=O)[C@@]1(CCS(=O)(=O)c2ccccc2)N=C(c2ccc(OCCCO)cc2)O[C@H]1c1ccccc1`
0.704

Provide measured composite z-score value, entry: C=CCC(OC(C)=O)[C@@H]1[C@@H](N(Cc2ccc(-c3cccc(C(F)(F)F)c3)o2)C(=O)c2ccc(-c3ccccc3)cc2)c2cc(OCCCO)ccc2N1C(=O)c1ccc2ccccc2n1 (some centres not stated)
-0.102

Provide measured composite z-score value, entry: C=CCC(OC(C)=O)[C@@H]1[C@@H](N(Cc2cccc3ccccc23)C(=O)Cc2ccc(OC)cc2)c2cc(OCCCO)ccc2N1C(=O)c1ccc2ccccc2n1 (some centres not stated)
-0.248

====

composite z-score listing for selected compounds.
- System: glycogen synthase kinase-3 (GSK3A per assay name; protocol says GSK3B)
- assayName: GSK3 binders on small-molecule microarrays, primary screen, biochemical, small-molecule microarray, 635 nm fluorescence, GSK3A (AID 1103); also: the record names both GSK3A and GSK3B
- experimentalConditions: small-molecule microarray binding, fluorescence 635 nm; higher = more signal
The response must contain the number and no unit.

Example entries and their recorded answers appear below.
compound	composite z-score
CCCCC(O)C1C=CC2C(=O)N(c3ccccc3)C(=O)C2N1Nc1ccc(C(C)C)cc1 (centres undefined)	1.26
CCCCCCc1nc(-c2cc(C)c(OC)c(C)c2)c(C)c2c1[Si](C(C)C)(C(C)C)OC2	-0.644
CC1CC/C=C\[C@H]2OC34C=CCN(c5ccc(Cl)cc5)C(=O)[C@H]3N(CCCCCO)C(=O)[C@]4(C)C2C(=O)O1 (some centres undefined)	-0.798

Next compound, please.
Provide measured composite z-score value, entry: `COCCOC(=O)N1C(=O)[C@@]2(c3cc(C#Cc4ccc(OC)cc4)ccc31)[C@H](c1ccccc1OCCO)N1[C@H](c3ccccc3)[C@H](c3ccccc3)OC(=O)[C@H]1[C@@H]2C(=O)N1CCCCCCC1`
1.34

====

- assayName: cell viability in Huh7 cells, primary screen, cytotoxicity control for HCV replication inhibitor project, CellTiter-Glo luminescence, basal, 48 h (AID 1143);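 also: Huh7 hepatoma cells carrying a hepatitis C replication reporter with no stimulus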
- experimentalConditions: Huh7 HCV replicon, higher = more signal, called active from +8 up or from −8 down
So basically: z-score at -2 or higher? That is Criterion met. Lower than -2? That is Criterion not met.

Example entries and their recorded answers appear below.
compound	class
CN1C(=O)C2C=CC(C(O)c3ccccn3)N(N(c3ccccc3)c3ccccc3)C2C1=O (centres undefined)	Criterion met
COc1ccc(CCN2C(=O)[C@@]3(Cc4ccccc42)c2ccccc2C(=O)N(Cc2ccccc2OC)[C@H]3c2ccc(CO)cc2)cc1	Criterion not met
COC(=O)[C@@]1(Cc2ccccc2)[C@@H]2C(=CC(=O)[C@H]2CC(=O)C(=O)N(C)C)CN1C(=O)c1ccccc1	Criterion not met
O=C1C2C=CC(C(O)c3ccc(Br)cc3)N(Nc3ccccc3F)C2C(=O)N1c1ccccc1 (centres undefined)	Criterion not met
COc1ccc(C#Cc2ccc3c(c2)[C@]2(C(=O)N3)[C@H](c3ccc(O)cc3)N3[C@H](c4ccccc4)[C@H](c4ccccc4)OC(=O)[C@H]3[C@@H]2C(=O)O)cc1	Criterion not met

Test whether the compound CC1CC/C=C\[C@H]2OC34C=CCN(C(C)C)C(=O)[C@H]3N(CCCCCCO)C(=O)[C@@H]4C2C(=O)O1 (some centres undefined) records z-score of -2 or higher.
Criterion met

Test whether the compound `CC(C)C(=C=CC[C@H](O)c1cccc(OCCO)c1)C[C@H](O)c1cc(Cl)cc(Cl)c1O` records z-score of -2 or higher.
Criterion met

Test whether the compound `CCOC(=O)c1ccc(NC(=O)O[C@H]2[C@H](OC(=O)Nc3ccc4c(c3)OCO4)[C@@H](OC(=O)Nc3ccc4c(c3)OCO4)[C@@H](OC)O[C@@H]2CO)cc1` records z-score of -2 or higher.
Criterion met

Test whether the compound `CN(C)C(=O)[C@@]1(Cc2ccccc2CN=[N+]=[N-])N=C(c2ccc(OCCCO)cc2)O[C@H]1c1ccccc1CN=[N+]=[N-]` records z-score of -2 or higher.
Criterion not met

Reference for the values: PubChem BioAssay
